# test-details: Colorimetry (CIEL*c*h*, ΔE2000) of anthocyanin isolates treated with pyruvic acid, 31 days storage
# Format: physicochemical
# particulars: day 0 vs day 31, Delta E2000
Below, each of the molecules is paired with its reported total color change (ΔE) value.

{"columns": ["molecule", "total color change (ΔE)"],
 "data": [
  ["OC[C@H]1O[C@@H](Oc2cc3c(O)cc(O)cc3[o+]c2-c2ccc(O)c(O)c2)[C@H](O)[C@@H](O)[C@@H]1O [cy3glu, cyanidin-3-glucoside]", 7.2]
]}

IN: What total color change (ΔE) value was documented for this molecule, OC[C@H]1O[C@@H](OC[C@H]2O[C@@H](Oc3cc4c(O)cc(O)cc4[o+]c3-c3ccc(O)c(O)c3)[C@H](O)[C@@H](O)[C@H]2O)[C@H](O)[C@@H](O)[C@@H]1O [cy3glugal, cyanidin-3-(glucosyl)galactoside] ?
OUT: 3.6

IN: What total color change (ΔE) value was documented for this molecule, Oc1cc(O)c2cc(O[C@@H]3OC[C@H](O)[C@H](O)[C@H]3O)c(-c3ccc(O)c(O)c3)[o+]c2c1 [cy3ara, cyanidin-3-arabinoside] ?
OUT: 16.4

Values from patent US20180346731A1
